Target: mouse ACVR2A (mouse, UniProt P27038 20-135, limits assumed); further: test concentration or dose not given here
Sequence (P27038 20-135 limits assumed): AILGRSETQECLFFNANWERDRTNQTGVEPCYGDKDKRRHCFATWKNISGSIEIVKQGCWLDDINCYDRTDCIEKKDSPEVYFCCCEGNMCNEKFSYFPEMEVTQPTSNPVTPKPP
Assay protocol: ELISA
Entries and their optical density values follow.
Field format: number, assumed OD, no unit text.

In the examples that follow, each entry is paired with its recorded optical density.
• 369_H11 (antibody, V domains shown, VH and VL only) VH: EVQLLESGGGLVQPGGSLRLSCAASGFTFSDYGMNWVRQAPGKGLEWVSSINYNGGYTGYADSVKGRFTISRDNSKNTLYLQMNSLRAEDTAVYYCARSATWHDTHLDYWGQGTLVTVSS VL: DIQMTQSPSSLSASVGDRVTITCRASQSILSYLNWYQQKPGKAPKLLIYAATSRHSGVPSRFSGSGSGTDFTLTISSLQPEDFATYYCQQSYDLPLTFGGGTKVEIK = 1.64
• 370_A08 (antibody, V domains shown, VH and VL only) VH: EVQLLESGGGLVQPGGSLRLSCAASGFTFDSYSMNWVRQAPGKGLEWVSSINYNSGYTGYADSVKGRFTISRDNSKNTLYLQMNSLRAEDTAVYYCARSATWHDTHLDYWGQGTLVTVSS VL: DIQMTQSPSSLSASVGDRVTITCRASQSIVTYLNWYQQKPGKAPKLVIYAATSRASGVPSRFSGSGSGTDFTLTISSLQPEDFATYYCQQSYDLPLTFGGGTKVEIK = 2.33
• 369_A06 (antibody, V domains shown, VH and VL only) VH: EVQLLESGGGLVQPGGSLRLSCAASGFTFSDYGMNWVRQAPGKGLEWVSNINYNGGYTGYADSVKGRFTISRDNSKNTLYLQMNSLRAEDTAVYYCARSATWHDTHLDYWGQGTLVTVSS VL: DIQMTQSPSSLSASVGDRVTITCRASQSILSYVNWYQQKPGKAPKLLIYAATSLASGVPSRFSGSGSGTDFTLTISSLQPEDFATYYCQQSYDLPLTFGGGTKVEIK = 3.01
• 374_G02 (antibody, V domains shown, VH and VL only) VH: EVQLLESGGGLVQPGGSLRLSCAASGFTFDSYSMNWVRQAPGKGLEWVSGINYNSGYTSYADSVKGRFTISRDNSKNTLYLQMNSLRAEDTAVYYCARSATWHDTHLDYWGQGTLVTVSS VL: DIQMTQSPSSLSASVGDRVTITCRASQSILTYLNWYQQKPGKAPKLLIYAASSLQSGVPSRFSGSGSGTDFTLTISSLQPEDFATYYCQQSYDTPLTFGGGTKVEIK = 3.54

API: the following record is the query input.
Problem: Need optical density, item 365_H04 (antibody, V domains shown, VH and VL only) VH: EVQLLESGGGLVQPGGSLRLSCAASGFTFSDYGMNWVRQAPGKGLEWVSGINYNSGYKSYADSVKGRFTISRDNSKNTLYLQMNSLRAEDTAVYYCARSATWHDTHLDYWGQGTLVTVSS VL: DIQMTQSPSSLSASVGDRVTITCRASQSILTYVNWYQQKPGKAPKLVIYAATSRASGVPSRFSGSGSGTDFTLTISSLQPEDFATYYCQQSYESPLTFGGGTKVEIK
Result: 2.59
